For each entry below, report its ELISA binding (OD values) value.
Molecular target: T1, human galectin-10 as coated in ELISA (soluble galectin-10; tag not given) (human, UniProt Q05315 1-142, limits assumed)
T1 construct: also called coated galectin-10; Gal10
T1 sequence: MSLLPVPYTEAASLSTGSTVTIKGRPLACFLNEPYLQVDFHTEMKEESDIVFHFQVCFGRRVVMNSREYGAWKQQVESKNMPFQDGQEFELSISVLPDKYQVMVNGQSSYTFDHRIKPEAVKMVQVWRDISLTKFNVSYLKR
Test: ELISA, scFv periplasmic extract on coated soluble galectin-10, anti-Myc-HRP
One number for each entry, in OD.

Examples with their reported ELISA binding (OD values) follow.
binder	readout	experimental-value
scFv 6E10 (periplasmic extract, Myc-tagged) (scFv, not shown: small tags and cut ends, also called 6E010) scFv: QLQLVESGGGLVQPGGSLRLSCAASGFTFSSYWMYWVRQAPGKGLEWVSAINTGGGSTYYADSVKGRFTISRDNAKNTLYLQMNSLKPEDTALYYCARAGSGVAGTGYDYWGQGTQVTVSSGGGGSGGGGSGGGGSQPVLNQPSAVSVSLGQTARITCQGGNFGYYYVSWYQQKPGQAPVLVIYRDSGRPSGIPERFSGSSSGDTATLTISGAQAEDEADYYCQSGSSSDNAVFGGGTHLTVL	ELISA binding (OD values)	3.7
scFv 6A08 (periplasmic extract, Myc-tagged) (scFv, not shown: small tags and cut ends) scFv: QVQLVESGGGLVQPGGSLRLSCAASGFTFSSYAMSWVRQAPGKGPEWVSAINRGGGSTYYADSVKGRFTISRDNAKNTLYLQMNSLKPEDAAVYYCATPGDRLWYYRYDYWGQGAQVTVSSGGGGSGGGGSGGGGSQTVVTQEPSLSVSPGGTVTLTCGLSSGSVTSSNYPGWYQQTPGQAPRLLIYNTNSRYSGVPNRFSGSISGNKAALIISGAQPEDEADYHCALNRVRGTYRVFGGGTHLTVL	ELISA binding (OD values)	3.5

Look up ELISA binding (OD values): scFv 6F06 (periplasmic extract, Myc-tagged) (scFv, not shown: small tags and cut ends) scFv: QVQLVESGGGLVQPGGSLRLSCAASEFTFSRYSMSWVRQAPGKGLEWVSTINSGGGSTSYVDSVKGRFTISRDNAKNTLYLQMNSLKPEDTAVYYCTKSQGGISFSTQYGMDYWGKGTLVTVSSGGGGSGGGGSGGGGSNFMLTQPSAVSVSLGQTARITCQGGNFGRYYANWYQQKPGQAPVLVIYKDSERPSGIPERFSGSSSGDTATLTISGAQAEDESDYYCQSGSVSDNAVFGGGTHLAVL 3.8
